B1: library; numbered along this chain (parent)
chain: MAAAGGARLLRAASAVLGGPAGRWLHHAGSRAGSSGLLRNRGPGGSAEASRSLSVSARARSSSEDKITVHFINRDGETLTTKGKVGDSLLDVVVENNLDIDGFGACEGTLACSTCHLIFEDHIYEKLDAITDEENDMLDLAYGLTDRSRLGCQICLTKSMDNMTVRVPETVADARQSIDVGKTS

Variants of: B1
Assay: scaled log2 fold change in cell abundance, elesclomol vs control (0 = silent mean, 1 = nonsense mean) (scaled log2 ratio); higher = higher viability under elesclomol (loss of FDX1 cuproptosis function);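 note: variant abundance is its share of total variant reads in each endpoint sample, from next-generation sequencing of the integrated ORF PCR-amplified out of genomic DNA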
Settings: with ABC1 FDX1 KO; elesclomol 5 nM; glucose 10 mM; 14 days
MEASUREMENT TYPE: scaled log2 fold change

Quick check: scaled log2 fold change of `A2C` ?
0.441

Quick check: scaled log2 fold change of `N40F` ?
-0.01

Quick check: scaled log2 fold change of `S54A` ?
0.19

Quick check: scaled log2 fold change of `E95P` ?
0.178

Quick check: scaled log2 fold change of `A129M` ?
-0.0116
